- MEASUREMENT TARGET: MAGI2_2, Q86UL8
- Sequence (Q86UL8 410-522): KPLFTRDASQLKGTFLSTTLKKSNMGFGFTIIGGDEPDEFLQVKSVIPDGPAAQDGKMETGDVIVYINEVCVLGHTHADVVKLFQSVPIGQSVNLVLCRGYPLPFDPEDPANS
- ASSAY NOTES: holdup assay
- Design: key: below the threshold = too weak to quantify, mostly under pKd 3.1 to 4
- CONDITION LABEL: plain residues with an end cap or a label only (N-terminal biotin on a linker: ahx)
RESULT TYPE: pKd

Some entries whose results are on file:
According to the records, this binder SDSSGQEYSL [KCTD3, Q9Y597] displays pKd of below the threshold

Entry GYDWGPATDL [TJP3, O95049] ; pKd = below the threshold

// sample ESLLLGPSNF [SHROOM4, Q9ULL8] , its pKd was below the threshold

Measured pKd, PSASCAVTAA [PDLIM4, P50479;P50479-2] : below the threshold

Note to self: pKd recorded for NRKREIFSNF [NHERF2, Q15599] was below the threshold

Data point: HNAFLSVTTV [PDZRN4, Q6ZMN7] ; pKd = 3.54

Looking up RRRKRKRTYL [HPV49-L2, P36762] , I found its pKd recorded as 5.33

# binder TVICWPGSLV [LNX2, Q8N448] ; its pKd = 4.26

Recorded result, LSDPSVSTVV [GRIN1, Q05586;Q05586-2] , pKd: below the threshold

Could you now look at the following binder, please?
Just so you know, measured pKd for RAVEEEESRF [PSCDBP, O60759] came out at below the threshold
